# system.under.test: T1, human EGFRvIII protein on the cell surface (human, UniProt P00533 25-1210)
# T1 construct: whole, on cells; the cell line is named under assay; also called hEGFRvIII; U87MG-hEGFRvIII
# assay.explanation: FACS on U87MG-EGFRvIII cells
# Description: The preparation of U87MG-EGFRvIII required for FACS detection is as described in the preparation of the immunogen B in example 1. Normal human primary hepatocytes are purchased from BioreclamationIVT, and A431 tumor cells are purchased from ATCC. […] The plate is centrifugally washed twice with the FACS buffer, added with 100 μL/well of a 1:1000 diluted fluorescence (Alexa 488) labeled secondary antibody (purchased from Invitrogen), and incubated on ice for 1 hour. […]
readout.kind: Maximum mean fluorescence intensity (MFI)
Number in MFI, nothing else.

Worked set:
| binder | Maximum mean fluorescence intensity (MFI) |
| --- | --- |
| Chimeric antibody 63A10 (antibody, human IgG1, V domains shown, also called c63A10A7; chimeric antibody c63A10A7) VH: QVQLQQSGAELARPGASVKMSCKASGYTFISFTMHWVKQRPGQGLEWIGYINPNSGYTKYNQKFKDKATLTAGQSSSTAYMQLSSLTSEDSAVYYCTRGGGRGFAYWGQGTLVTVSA VL: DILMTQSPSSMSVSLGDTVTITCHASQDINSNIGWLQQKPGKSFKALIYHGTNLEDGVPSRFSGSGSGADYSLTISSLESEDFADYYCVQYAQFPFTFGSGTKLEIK | 11600 |
| Humanized antibody h75G7C6-13 (antibody, human IgG1, V domains shown, also called VH-g2/VL-g0) VH: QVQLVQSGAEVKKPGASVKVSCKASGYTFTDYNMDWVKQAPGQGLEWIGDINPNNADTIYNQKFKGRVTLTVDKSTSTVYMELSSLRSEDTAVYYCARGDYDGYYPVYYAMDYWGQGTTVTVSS VL: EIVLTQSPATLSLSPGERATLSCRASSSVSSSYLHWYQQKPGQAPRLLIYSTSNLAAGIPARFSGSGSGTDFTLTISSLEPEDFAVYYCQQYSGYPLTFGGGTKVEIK | 18700 |

As a next step, examine the binder that follows.
Lookup: Look up Maximum mean fluorescence intensity for this binder: Humanized antibody h75G7C6-11 (antibody, human IgG1, V domains shown, also called VH-g1/VL-g2) VH: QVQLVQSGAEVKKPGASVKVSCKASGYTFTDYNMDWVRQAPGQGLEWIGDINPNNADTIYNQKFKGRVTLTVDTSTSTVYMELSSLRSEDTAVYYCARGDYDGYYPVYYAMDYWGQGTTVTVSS VL: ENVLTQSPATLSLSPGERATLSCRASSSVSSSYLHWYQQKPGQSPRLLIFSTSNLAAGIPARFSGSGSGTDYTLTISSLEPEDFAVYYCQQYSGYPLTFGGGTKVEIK
Found: 17600
